# key: entry, value: Kieq
target: Cannabinoid receptor 2 (Homo sapiens, UniProt P34972); experiment: Displacement of [3H]-CP-55940 from human recombinant CB2 receptor expressed in HEK293 cells after 90 mins by Competition binding assay; format: cell-based
Sequence (P34972 whole entry): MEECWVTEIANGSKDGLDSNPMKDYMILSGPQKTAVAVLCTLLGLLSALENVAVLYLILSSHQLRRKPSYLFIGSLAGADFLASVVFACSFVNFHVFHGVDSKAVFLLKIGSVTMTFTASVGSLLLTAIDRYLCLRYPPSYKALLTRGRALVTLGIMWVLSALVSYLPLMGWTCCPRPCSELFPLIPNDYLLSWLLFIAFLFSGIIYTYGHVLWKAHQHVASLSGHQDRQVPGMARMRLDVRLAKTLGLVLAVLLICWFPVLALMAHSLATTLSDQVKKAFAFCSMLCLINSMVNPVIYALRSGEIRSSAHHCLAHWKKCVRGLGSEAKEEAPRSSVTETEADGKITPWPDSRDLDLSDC
Please respond with the number in nM and leave the unit unwritten.

Answered examples (3):
In [3]: df
Out[3]:
                                        smi                           measured_target  recorded_number
0  COCCOCn1cc(C(=O)NC23CC4CC(CC(C4)C2)C3)c(=O)c2ccc(F)cc21  Cannabinoid receptor 2 (Homo sapiens, UniProt P34972)               56
1  CCCCCn1c(=O)c(C(=O)NCc2ccc(OC)cc2)c(O)c2cc(-c3cccs3)ccc21  Cannabinoid receptor 2 (Homo sapiens, UniProt P34972)             19.7
2  CCCCCn1cc(C(=O)NC23CC4CC(CC(C4)C2)C3)c(=O)c2ccccc21  Cannabinoid receptor 2 (Homo sapiens, UniProt P34972)              4.7

I would be grateful if you could share the reported Kieq for `COc1ccc(CNC(=O)c2c(O)c3cc(-c4cccs4)ccc3n(CCCCO)c2=O)cc1` .
2240
